Item-by-item account of pEC50
tested on: Dengue-2 (Strain New Guinea C); experiment: Viral yield assay against Dengue-2 in Vero cells; format: cell-based, Dengue virus; conditions: Dengue virus; Vero cells, MOI 0.1, harvested 48 hours post infection; read-out: Activity (EC50 class) against Dengue-2 Virus in Vero cells
pEC50: −log10 of the molar value.
Readout Type: pEC50

> print(dat)
                                   molecule  readout.type  recorded.result
1  CN(C)c1ccnc2sc(C(=O)NCc3ccccc3)c(N)c12 [Compound 77]         pEC50     4.60 to 5.30
2  CN1CCc2nc3sc(C(=O)Nc4cccc(C(F)(F)F)c4)c(N)c3cc2C1 [Compound 280]         pEC50           < 4.60
3  CN1CCc2nc3sc(C(=O)Nc4nncs4)c(N)c3cc2C1 [Compound 278]         pEC50           < 4.60
4  Cc1ccc(NC(=O)c2sc3nc(C)cc(C(F)(F)F)c3c2N)nc1 [Compound 132]         pEC50           < 4.60
5  CCOC(=O)c1c(NC(=O)c2sc3nc4c(cc3c2N)CN(C)CC4)sc2c1CCCC2 [Compound 57]         pEC50           > 5.30
6  COc1cc(-c2c(C#N)c(N)nc3sc(C(N)=O)c(N)c23)cc(OC)c1OC [Compound 155]         pEC50           < 4.60
7  COCc1cc(C)nc2sc(C(=O)Nc3cc(C)ccc3F)c(N)c12 [Compound 242]         pEC50           < 4.60
8  CCOC(=O)c1cc(NC(=O)c2sc3nc(C)cc(COC)c3c2N)ccc1Cl [Compound 240]         pEC50           < 4.60
9  CN1CCc2nc3sc(C(=O)Nc4cccc(Cl)c4)c(N)c3cc2C1 [Compound 18]         pEC50           > 5.30
